FYI, the data here is from patent US20210032365A1.

- Measurement Target: T1, human C1s (human, UniProt P09871 16-688)
- T1 construct: also called hC1s; serum-derived human C1s (CompTech)
- T1 sequence: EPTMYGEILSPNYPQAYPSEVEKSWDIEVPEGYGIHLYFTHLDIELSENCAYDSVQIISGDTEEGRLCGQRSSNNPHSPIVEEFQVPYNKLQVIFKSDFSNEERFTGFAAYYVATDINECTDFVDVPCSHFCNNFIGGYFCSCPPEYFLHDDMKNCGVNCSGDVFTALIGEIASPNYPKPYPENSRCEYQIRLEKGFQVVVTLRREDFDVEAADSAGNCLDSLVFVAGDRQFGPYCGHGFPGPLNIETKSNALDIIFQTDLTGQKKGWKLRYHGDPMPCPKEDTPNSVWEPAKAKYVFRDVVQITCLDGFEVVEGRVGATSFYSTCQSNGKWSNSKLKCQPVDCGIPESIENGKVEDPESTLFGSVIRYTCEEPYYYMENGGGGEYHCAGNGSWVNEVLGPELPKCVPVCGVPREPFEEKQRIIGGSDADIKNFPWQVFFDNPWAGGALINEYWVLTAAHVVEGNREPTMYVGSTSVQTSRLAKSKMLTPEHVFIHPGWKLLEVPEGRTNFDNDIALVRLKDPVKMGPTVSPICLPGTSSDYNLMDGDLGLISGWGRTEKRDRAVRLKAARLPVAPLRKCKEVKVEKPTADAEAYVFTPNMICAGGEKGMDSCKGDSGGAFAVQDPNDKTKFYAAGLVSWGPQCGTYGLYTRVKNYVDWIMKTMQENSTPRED
- Procedure Summary: SPR, Ab captured; pH 5.8, 1.2 mM Ca
Would you please tag the item YES when its kon is 600000 M⁻¹ s⁻¹ or above, and NO when it is below?

Binder	Class Name
C1_IPN92H0033-SG4GK/IPN93L0029-SK1 (antibody, human IgG4 S228P, kappa, name in Kabat numbering, V domains shown, also called IPN92H0033/IPN93L0029) VH: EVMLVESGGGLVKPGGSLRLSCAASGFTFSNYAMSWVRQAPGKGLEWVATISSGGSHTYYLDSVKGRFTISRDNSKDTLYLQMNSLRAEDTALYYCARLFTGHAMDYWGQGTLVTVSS VL: QIVLTQSPATLSLSPGERATLSCTASSSVSSSYLHWYQQKPGKAPKLWIYSTSNLASGVPSRFSGSGSGTDYTLTISSLQPEDFATYYCHQYHRLHPITFGQGTKLEIKR	YES

Now consider a different binder.
## Input Is the recorded value of kon equal to or greater than 600000 M⁻¹ s⁻¹ for this binder? C1_IPN92H0038-SG4GK/IPN93L0021-SK1 (antibody, human IgG4 S228P, kappa, name in Kabat numbering, V domains shown, also called IPN92H0038/IPN93L0021) VH: EVMLVESGGGLVKPGGSLRLSCAASGFTFSNYAMSWVRQAPGKGLEWVATISSGGSHTYYLDSVKHRFTISRDNSKDTLYLQMNSLRAEDTALYYCARLFTGHAMDYWGQGTLVTVSS VL: QIVLTQSPATLSLSPGERATLSCTASSSVSSSYLHWYQQKPGKAPKLWIYSTSNLASGVPSRFSGSGSGTDYTLTISSLQPEDFATYYCHQYHRLPPITFGQGTKLEIKR
## Output YES
